target.or.test.system: Poly [ADP-ribose] polymerase 1 (Homo sapiens, UniProt P09874)
Sequence (P09874 whole entry): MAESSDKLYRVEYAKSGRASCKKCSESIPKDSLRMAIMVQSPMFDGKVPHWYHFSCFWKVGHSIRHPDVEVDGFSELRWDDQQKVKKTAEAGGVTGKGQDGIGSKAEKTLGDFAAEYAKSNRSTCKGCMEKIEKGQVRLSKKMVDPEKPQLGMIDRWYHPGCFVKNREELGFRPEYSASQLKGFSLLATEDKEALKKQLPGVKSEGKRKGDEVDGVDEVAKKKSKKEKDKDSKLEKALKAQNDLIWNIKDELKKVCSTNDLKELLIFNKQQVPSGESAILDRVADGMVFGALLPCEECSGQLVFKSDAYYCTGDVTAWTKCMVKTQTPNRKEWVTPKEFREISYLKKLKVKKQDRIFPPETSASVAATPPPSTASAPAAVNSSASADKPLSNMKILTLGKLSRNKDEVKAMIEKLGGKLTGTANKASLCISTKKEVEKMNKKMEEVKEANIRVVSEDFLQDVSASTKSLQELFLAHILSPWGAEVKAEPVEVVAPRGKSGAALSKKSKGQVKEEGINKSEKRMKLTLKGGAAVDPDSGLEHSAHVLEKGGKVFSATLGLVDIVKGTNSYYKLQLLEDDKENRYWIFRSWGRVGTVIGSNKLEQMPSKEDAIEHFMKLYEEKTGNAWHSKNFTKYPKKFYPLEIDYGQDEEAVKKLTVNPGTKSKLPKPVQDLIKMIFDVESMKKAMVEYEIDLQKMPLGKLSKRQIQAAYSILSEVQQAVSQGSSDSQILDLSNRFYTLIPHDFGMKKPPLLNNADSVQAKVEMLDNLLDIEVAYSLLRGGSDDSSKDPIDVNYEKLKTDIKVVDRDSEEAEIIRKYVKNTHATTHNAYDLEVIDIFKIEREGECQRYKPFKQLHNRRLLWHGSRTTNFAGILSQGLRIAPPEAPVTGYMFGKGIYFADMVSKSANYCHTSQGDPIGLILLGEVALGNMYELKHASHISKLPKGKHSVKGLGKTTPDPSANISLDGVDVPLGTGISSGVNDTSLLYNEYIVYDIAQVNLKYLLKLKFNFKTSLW
property.name: IC50 (µM)
Numbers only here, please. The scale is µM.

# IC50 measured on Poly [ADP-ribose] polymerase 1 (Homo sapiens, UniProt P09874) for item CCCS(=O)(=O)Oc1c(Br)cc(-c2nc3c(C(N)=O)cccc3[nH]2)cc1OC = 0.0505

###

assay.procedure: in vitro
run.conditions: human, H8 cells
Description: Cytotoxicity against human H8 cells assessed as inhibition of cell proliferation incubated for 72 hrs
property.name: IC50 at 72 h

Field IC50 at 72 h (entry O=C(c1cc(Cc2n[nH]c(=O)c3ccccc23)ccc1F)N1CCN(C(=O)C2CC2)CC1 ) reads > 200 µM

###

target.or.test.system: UniProt Q9UGN5
Sequence (Q9UGN5 whole entry): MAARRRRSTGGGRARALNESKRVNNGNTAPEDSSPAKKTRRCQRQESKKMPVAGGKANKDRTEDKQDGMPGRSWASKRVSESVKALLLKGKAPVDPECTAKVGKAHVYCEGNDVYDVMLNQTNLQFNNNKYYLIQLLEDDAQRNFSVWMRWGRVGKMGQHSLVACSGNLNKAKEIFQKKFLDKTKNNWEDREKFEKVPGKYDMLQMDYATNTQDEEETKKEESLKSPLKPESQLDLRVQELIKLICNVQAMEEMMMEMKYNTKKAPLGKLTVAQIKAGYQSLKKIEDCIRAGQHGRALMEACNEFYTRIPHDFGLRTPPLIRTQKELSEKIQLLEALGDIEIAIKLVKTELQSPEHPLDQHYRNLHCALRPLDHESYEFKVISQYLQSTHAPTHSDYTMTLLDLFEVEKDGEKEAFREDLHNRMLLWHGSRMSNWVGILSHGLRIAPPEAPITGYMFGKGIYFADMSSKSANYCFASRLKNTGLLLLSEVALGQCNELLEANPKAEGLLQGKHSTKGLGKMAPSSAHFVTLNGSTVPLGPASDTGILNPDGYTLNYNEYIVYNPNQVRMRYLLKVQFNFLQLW
Listed molecules paired with reported pIC50
Recall that pIC50 is obtained by taking minus log10 of the concentration measured in molar.

smiles.input	target.or.test.system	pIC50
CCCS(=O)(=O)Oc1c(Br)cc(-c2nc3c(C(N)=O)cccc3[nH]2)cc1OC	UniProt Q9UGN5	6.12

Consider the record given below.
# pIC50 measured on UniProt Q9UGN5 for item COc1cc(/C=N/NC(N)=S)c(Br)c(Br)c1OC = 5.81
